src = patent US20220195023A1

TARGET DESC: (NPNA)3 (Plasmodium falciparum)
MEASUREMENT DESCRIPTION: BLI, target on sensor
EXPERIMENTAL READOUT: Kd (nM)
Entry rule: numbers only, all in nM.

Below, each entry is followed by its recorded Kd result.
| BINDER | UNIT ABBREV | Kd |
| --- | --- | --- |
| AB-007035 (antibody, V domains shown) VH: QMQLVESGGGVVQPGRSLRLSCTASGFTFSSYAMHWVRQSPGQGLQWVAVISYHSTNKYYEDSVRGRFTISRDNSKNTLYLQMNSLRAEDTAVYYCARDGYSSSFFDFWGQGTLVTVSS VL: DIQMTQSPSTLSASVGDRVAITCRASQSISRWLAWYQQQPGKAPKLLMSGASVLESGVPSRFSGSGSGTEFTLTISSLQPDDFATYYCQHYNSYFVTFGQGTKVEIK | nM | 0.322 |
| AB-007034 (antibody, V domains shown) VH: QVQLVESGGGVVQPGRSLRLSCAASGFTFSTYAMHWVRQAPGQGLEWVAVISYHSTNKYYADSVRGRFTISRDNSKNTLYLQMNSLRAEDTAVYYCARDGYSSSFFDFWGQGTLVTVSS VL: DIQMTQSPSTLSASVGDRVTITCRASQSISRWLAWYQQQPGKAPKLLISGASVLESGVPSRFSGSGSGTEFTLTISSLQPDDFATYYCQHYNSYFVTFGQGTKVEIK | nM | 0.00372 |
| AB-007054 (antibody, V domains shown) VH: QMQLVESGGGVVQPGRSLRLSCTASGFTFSTYAMHWVRQSPGQGLQWVAVISYHSTNKYYEDSVRGRFTISRDNSKNTLYLQMNSLRAEDTAVYYCARDGYASSFFDFWGQGTLVTVSS VL: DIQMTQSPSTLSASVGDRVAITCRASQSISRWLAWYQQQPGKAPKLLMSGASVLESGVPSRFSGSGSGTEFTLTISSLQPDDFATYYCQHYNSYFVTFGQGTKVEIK | nM | 0.61 |
| AB-007060 (antibody, V domains shown) VH: QMQLVESGGGVVQPGRSLRLSCTASGFTFSTYAMHWVRQSPGQGLQWVAVISYHSTNKYYEDSVRGRFTISRDNSKNTLYLQMNSLRAEDTAVYYCARDGYSSSYFDFWGQGTLVTVSS VL: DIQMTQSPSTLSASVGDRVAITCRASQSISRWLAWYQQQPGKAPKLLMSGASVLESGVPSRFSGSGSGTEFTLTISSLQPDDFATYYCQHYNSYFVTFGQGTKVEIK | nM | 1.14 |
| AB-007071 (antibody, V domains shown) VH: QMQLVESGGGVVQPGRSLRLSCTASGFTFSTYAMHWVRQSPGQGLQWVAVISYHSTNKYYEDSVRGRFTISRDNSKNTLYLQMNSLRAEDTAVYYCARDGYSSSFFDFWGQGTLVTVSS VL: DIQMTQSPSTLSASVGDRVAITCRASQSISRWLAWYQQQPGKAPKLLMSGASSLESGVPSRFSGSGSGTEFTLTISSLQPDDFATYYCQHYNSYFVTFGQGTKVEIK | nM | 0.694 |
| AB-007055 (antibody, V domains shown) VH: QMQLVESGGGVVQPGRSLRLSCTASGFTFSTYAMHWVRQSPGQGLQWVAVISYHSTNKYYEDSVRGRFTISRDNSKNTLYLQMNSLRAEDTAVYYCARDGYTSSFFDFWGQGTLVTVSS VL: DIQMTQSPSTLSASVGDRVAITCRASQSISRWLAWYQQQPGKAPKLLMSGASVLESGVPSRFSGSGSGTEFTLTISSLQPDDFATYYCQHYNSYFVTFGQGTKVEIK | nM | 3.62 |
| AB-007046 (antibody, V domains shown) VH: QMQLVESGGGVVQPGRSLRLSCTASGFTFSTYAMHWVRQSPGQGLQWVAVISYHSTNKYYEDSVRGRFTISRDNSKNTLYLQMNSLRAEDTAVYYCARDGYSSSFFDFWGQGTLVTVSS VL: DIQMTQSPSTLSASVGDRVAITCRASQSISRWLAWYQQQPGKAPKLLMSGASVLESGVPSRFSGSGSGTEFTLTISSLQPDDFATYYCQHYYSYFVTFGQGTKVEIK | nM | 1.57 |

Input line: Assign Kd to the following record: AB-007044 (antibody, V domains shown) VH: QMQLVESGGGVVQPGRSLRLSCTASGFTFSTYAMHWVRQSPGQGLQWVAVISYHSTNKYYEESVRGRFTISRDNSKNTLYLQMNSLRAEDTAVYYCARDGYSSSFFDFWGQGTLVTVSS VL: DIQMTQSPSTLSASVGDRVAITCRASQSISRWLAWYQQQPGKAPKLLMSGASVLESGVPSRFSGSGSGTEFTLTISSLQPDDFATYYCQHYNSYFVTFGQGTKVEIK
Output line: 0.239
